- tgt: Neuropilin-1 (Homo sapiens) (UniProt O14786)
- Sequence (O14786 whole entry, looked up): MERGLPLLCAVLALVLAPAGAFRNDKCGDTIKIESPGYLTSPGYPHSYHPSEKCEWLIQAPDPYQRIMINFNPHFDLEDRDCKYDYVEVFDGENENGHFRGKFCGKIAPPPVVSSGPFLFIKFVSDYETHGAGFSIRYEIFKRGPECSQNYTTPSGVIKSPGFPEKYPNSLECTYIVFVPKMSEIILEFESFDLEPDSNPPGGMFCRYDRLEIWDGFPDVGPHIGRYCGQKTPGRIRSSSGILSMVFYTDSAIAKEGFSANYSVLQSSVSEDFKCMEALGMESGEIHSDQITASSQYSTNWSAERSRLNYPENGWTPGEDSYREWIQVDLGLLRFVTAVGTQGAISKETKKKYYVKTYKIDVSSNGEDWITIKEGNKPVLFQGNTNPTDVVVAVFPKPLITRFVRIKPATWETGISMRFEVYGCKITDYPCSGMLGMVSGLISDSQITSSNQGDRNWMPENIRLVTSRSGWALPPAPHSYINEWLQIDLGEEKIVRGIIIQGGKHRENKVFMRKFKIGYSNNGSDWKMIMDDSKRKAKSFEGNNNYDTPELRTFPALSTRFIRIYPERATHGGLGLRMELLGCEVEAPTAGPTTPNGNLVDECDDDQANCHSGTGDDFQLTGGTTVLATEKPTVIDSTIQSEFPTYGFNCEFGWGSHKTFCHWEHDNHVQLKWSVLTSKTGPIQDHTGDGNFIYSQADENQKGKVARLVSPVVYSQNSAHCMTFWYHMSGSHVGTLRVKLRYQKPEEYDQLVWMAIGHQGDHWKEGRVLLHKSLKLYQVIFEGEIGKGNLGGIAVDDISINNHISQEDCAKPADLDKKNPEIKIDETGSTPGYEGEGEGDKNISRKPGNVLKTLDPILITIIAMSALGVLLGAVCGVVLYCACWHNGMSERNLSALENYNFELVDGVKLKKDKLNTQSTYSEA
- method-notes: blockers of CendR peptide binding to NRP-1 – biochemical, FP and AlphaScreen panel, dose response (AID 651650)
- condition-set: NRP-1 b1b2 / RPARPAR peptide binding, FP or AlphaScreen; run 1, at 100 µM (top of the series)
For each of the compounds below, state its inhibition.
# unit: % | format: bare number

Record CCOCCCNC(=O)C(c1ccc(C)cc1)N(Cc1cccs1)C(=O)c1ccccc1O (centres undefined) . Reported inhibition: 24.4

Record OCC1OC(n2cnc3c(/C=C(\O)c4ccccc4)ncnc32)C(O)C1O (centres undefined) . Reported inhibition: 3.57

Record CC(NCCOCCOc1ccccc1)c1ccccc1 (centres undefined) . Reported inhibition: 39.6

Record "COc1ccc(Cn2c3ccc(OC)cc3c3nc4ccccc4nc32)cc1" . Reported inhibition: 78.8

Record "Cc1cc(NC(=O)COC(=O)c2ccc(C)c(C)c2)no1" . Reported inhibition: 5.88

Record "O=C(CSc1nc2ccccc2n1Cc1ccccc1Cl)N/N=C/c1ccccc1C(=O)O" . Reported inhibition: 84.6

Record CC(CN1CCCCC1)OC(=O)c1ccc(Cl)cc1Cl (centres undefined) . Reported inhibition: 30.1

Record "CN(C)/N=C/c1ccc(Sc2ccc([N+](=O)[O-])cc2[N+](=O)[O-])o1" . Reported inhibition: 55.1

Record Cc1csc(NC(C)c2nc3cc(C(F)(F)F)ccc3n2CCOCCO)n1 (centres undefined) . Reported inhibition: 20

Record "C=C(C)COc1ccc(-c2[nH]ncc2-c2ccccc2)c(O)c1" . Reported inhibition: 16.9

Record "CC1CCN(C(=O)CSc2nncn2C)CC1" . Reported inhibition: 0.359

Record "Cc1ccc(C(=O)N/C(=C\c2ccc(-c3ccccc3[N+](=O)[O-])o2)C(=O)NCCCN2CCOCC2)cc1" . Reported inhibition: 13.2

Record "Cc1cc(C)n2c(SCC(=O)Nc3cccc(S(N)(=O)=O)c3)nnc2n1" . Reported inhibition: -5.38

Record Cc1occc1C(=O)N1N=C(C2CC2)CC1(O)C(F)(F)F (centres undefined) . Reported inhibition: 35.3

Data provenance: PubChem BioAssay AID651650
